meta.source: the Human Domainome abundance scans (Beltran et al. 2025)

B1: Mineralocorticoid receptor, residues 600 to 675; numbered along this chain, P08235 (parent)
chain: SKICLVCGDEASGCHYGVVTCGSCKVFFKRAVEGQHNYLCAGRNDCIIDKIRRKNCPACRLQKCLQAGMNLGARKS

- Variants of: B1
- ASSAY_COMMENT: abundance fitness (aPCA) (normalised: wild type 0, dead -1); higher = more abundant; growth selection in yeast, the domain comes from the species named
- CONDITION_CONTEXT: Homo sapiens
RESULT_TYPE: abundance fitness
Answer with the value's number alone.

Item under review: K54R . Reported abundance fitness? -0.083

For R52G then? -0.027

For N70P then? -0.021

For G72W then? -0.124

For V18C then? 0.112

For I47H then? -0.018

For L65T then? -0.037

For S12K then? -0.124

For R43S then? -0.001

For Q62F then? -0.16

For L61Q then? -0.005

For C7A then? -0.933

For D49W then? -0.258

For C14E then? -0.012
